target: recombinant AtCKX2 (Arabidopsis thaliana, UniProt Q9FUJ3); construct: made in house; host or cells: S. cerevisiae strain 23344c ura-; assay: Inhibition of cytokinin oxidase/dehydrogenase activity (PMS/MTT microtitre assay); type: biochemical; details: 30 μM iP substrate, 30 min, 37° C.; read-out: IC50
Sequence (Q9FUJ3 23-501): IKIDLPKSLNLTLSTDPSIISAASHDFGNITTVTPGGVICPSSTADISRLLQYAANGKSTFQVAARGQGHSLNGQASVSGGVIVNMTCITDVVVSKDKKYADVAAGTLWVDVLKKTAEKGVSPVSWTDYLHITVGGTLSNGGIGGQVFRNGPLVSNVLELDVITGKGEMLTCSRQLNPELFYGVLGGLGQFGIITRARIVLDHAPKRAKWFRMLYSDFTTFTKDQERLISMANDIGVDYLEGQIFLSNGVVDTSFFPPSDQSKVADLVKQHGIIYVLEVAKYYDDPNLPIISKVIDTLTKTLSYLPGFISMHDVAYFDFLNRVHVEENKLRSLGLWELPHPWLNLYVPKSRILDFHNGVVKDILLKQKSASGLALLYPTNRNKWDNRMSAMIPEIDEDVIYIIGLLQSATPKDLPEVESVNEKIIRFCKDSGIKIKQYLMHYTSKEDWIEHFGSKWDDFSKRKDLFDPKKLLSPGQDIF
Quantity kind: IC50 (µM)

INSERT INTO results (compound, quantity_kind, unit_string, value_measured) VALUES
  ('COc1cccc(Nc2nc(Cl)nc3c2ncn3C2CCCCO2)c1 (stereo not shown)', 'IC50', 'µM', 19.5),
  ('COc1cccc(Nc2nc(F)nc3c2ncn3C2CCCCO2)c1 (stereo not shown)', 'IC50', 'µM', 380),
  ('COc1cccc(Nc2nc(Cl)nc3nc[nH]c23)c1', 'IC50', 'µM', 6.7),
  ('COc1cccc(Nc2nc(F)nc3[nH]cnc23)c1 [INCYDE-F, 2-fluoro-6-(3-methoxyanilino)purine, reference compound]', 'IC50', 'µM', 5.2);

###

assay: Compound solubility limit in the test medium; type: physicochemical; conditions: read-out: highest concentration accessible due to the compound solubility
Quantity kind: solubility (µM)

INSERT INTO assay_data (compound, unit_string, value_measured) VALUES
  ('COc1cccc(Nc2nc(Cl)nc3c2ncn3C2CCCCO2)c1 (stereo not shown)', 'µM', 100);
